- test name: soluble on expression in E. coli; label from the status in PepcDB or PDB records
property name: soluble on expression in E. coli

Example entries and their recorded answers appear below.
{"entry sequence": "QLPSYRFNPNNHQSEQTLCVVCMCDFESRQLLRVLPCNHEFHAKCVDKWLKANRTCPICRAD", "soluble on expression in E. coli": "soluble"}
{"entry sequence": "MAHHHHHHMNPSLSDSKFEKAMSKLQLLEDSRTILHRMLQHAHFSFSNAQRQMDRTGLLLAWEAVPTAAGAVKPQYCIVREMKDGGNGGDAGVGAAAISDDNVDCAVWKLVNCGDSAGEDPAKWFAVAPSEALRECQQHFRGVVNACVKVIQAQEEAITAAATVPVT", "soluble on expression in E. coli": "not soluble"}
{"entry sequence": "MSLNERVMMINANGVPIALYNRGHLGSGHFGAVIKASLDDGTLYAAKVPYSQIVPNADATSAELEAEISSARAELVKTIRQELDVRDKLVAKGLTLTETAEQYGLPLCQMTLTLPENKATVVRRGSRLVVVSKEVMLLPLIDGSPSNSLVQSQPPFLFQRAVAREAIIALAKLHELGFAHGDVKLNNMMIDVHGFGHMLDMGSVRPVDSCVSEEDKYYLRLWAPELAKSQHTSQQTCLKRGALDVWALGLAIFEFVCFNRLPYSLSNLPSSLWSRVEHLSRLRLSDFSAKDCNESDPAVMGIVAQFLNPNPEERPELPKFVSSYTFFRQAPGVTSHLTRIPTTELSSHREGHHHHHH", "soluble on expression in E. coli": "soluble"}
{"entry sequence": "AIASYCRQEGKDKIIFVTKEDHETPSSAELIADDPNDPFEEQGLILPNGDINWNCPCLGGMASGPCGEQFKSAFSCFHYSQEEIKGSDCLDQFRAMQECMQKYPELYPQEDDEDELEKEKQNKDEESSVTQSSDTKEESSS", "soluble on expression in E. coli": "soluble"}
{"entry sequence": "MNIQHNLNLIQQKIETACKEENRNQNTVKLLAVSKTKPISAILSAYQAGQTAFGENYVQEGVEKIQYFESQGINLEWHFIGPLQSNKTRLVAEHFDWMQTLDRAKIADRLNEQRPTNKAPLNVLIQINISDEESKSGIQPEEMLTLAKHIENLPHLCLRGLMAIPAPTDNIAEQENAFRKMLELFEQLKQVLPNQQIDTLSMGMTDDMPSAIKCGSTMVRIGTAIFGARNYSTSQNK", "soluble on expression in E. coli": "not soluble"}
{"entry sequence": "MNNTDYMIHLLARTIKTGKDELITPLIIQLSDMQVSRDLLEKHNLPALVAEYAPFNEAAKSLSKSVLAWKYEEIAQEMPQLLKEFVQIAKEKRVPEEFMVRLVTSLMDFDDLDTVRSCLEILNHFEFSLDEYEELGIYRKATQFEGQFRDADEIIAKVDVLLLQDEILEEDEAEVEADDLIGHAEENEEEENDFSDDESVISETESGIYTDEELELEDHFEAVRKEDRKDQVMTEICMMLLAGYIRSGNSEVISAAIKFTWAFDYSLEMYQKYDIQNLIYNFGVHNDDAELLMNHIKELQARELFNENRKFFKRFLRTCMEEKTITDSVLSYLKGFLENGDDYMVSCTLKFLLGMPITLSQFKTSHVEACLENLESGPSAQLGFMLKMKIQKLEHSEKS", "soluble on expression in E. coli": "not soluble"}
{"entry sequence": "MSGSSEIMSMHDQIVRFSASSSAPEDTTTNSLMAEKEASLVVRLEQELTQAQICNHRLNQQLKVLANSSDKAIKIELANAKVRF", "soluble on expression in E. coli": "not soluble"}

Okay, next one:
Reported soluble on expression in E. coli, sequence WDPPYLQIAFDNPNLEFVLSAISEIPKSDHVIIEAGTPLIKRYGTDVISKIRQVRPDAFIVADLKTLDTGNLEARMVADAAGDAIVVSALAPISTIDKLIEEAHKTGIYAVMDTLNQQDPISVLKQLKVMPDVIELHRGIDIEGTEHAWGNIGEIKKIAPKALVAVAGGVRLDKVPVALSQGADILVVGRAITNAKDVREMAEQFINSLNK : ____
soluble
